- TEST_DESCRIPTION: chemical genetic growth profiling, strain panel (AID 1159580);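 further: tested at 20 µM; growth read once vehicle control cultures reached saturation at 30 °C; 1 = growth at the plate median or of vehicle wells; lower values mean less growth of the strain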
- MEASUREMENT_PARAMETERS: S. cerevisiae deletion strains, growth OD, locus YDL035C, strain GPR1, active compounds read low
About 2,000 (36%) of roughly 5,500 compounds were called active. Inconclusive results (about 18%) are left out. This is one part of the list.
Binarize normalized growth at 1; below is label 1, at or above is label 0.

* CC(C)C1COc2cc3oc(=O)ccc3cc2O1 (stereo not drawn) | label 1
* CC(CC(O)C1OC1(C)C)[C@@H]1CCC2(C)C3=CCC4C(C)(C)C(=O)CCC4(C)C3CC[C@@]12C (stereo partly drawn) | label 1
* CC1(C)C2CC(=O)[C@]3(C)C(CC[C@@]4(C)[C@H](c5ccoc5)OC(=O)C5OC543)[C@@]2(C)[C@@H](O)C[C@H]1O (stereo partly drawn) | label 0
